Entries with reported EC50 on ATP-dependent translocase ABCB1 (Homo sapiens)
Sequence (P08183 whole entry): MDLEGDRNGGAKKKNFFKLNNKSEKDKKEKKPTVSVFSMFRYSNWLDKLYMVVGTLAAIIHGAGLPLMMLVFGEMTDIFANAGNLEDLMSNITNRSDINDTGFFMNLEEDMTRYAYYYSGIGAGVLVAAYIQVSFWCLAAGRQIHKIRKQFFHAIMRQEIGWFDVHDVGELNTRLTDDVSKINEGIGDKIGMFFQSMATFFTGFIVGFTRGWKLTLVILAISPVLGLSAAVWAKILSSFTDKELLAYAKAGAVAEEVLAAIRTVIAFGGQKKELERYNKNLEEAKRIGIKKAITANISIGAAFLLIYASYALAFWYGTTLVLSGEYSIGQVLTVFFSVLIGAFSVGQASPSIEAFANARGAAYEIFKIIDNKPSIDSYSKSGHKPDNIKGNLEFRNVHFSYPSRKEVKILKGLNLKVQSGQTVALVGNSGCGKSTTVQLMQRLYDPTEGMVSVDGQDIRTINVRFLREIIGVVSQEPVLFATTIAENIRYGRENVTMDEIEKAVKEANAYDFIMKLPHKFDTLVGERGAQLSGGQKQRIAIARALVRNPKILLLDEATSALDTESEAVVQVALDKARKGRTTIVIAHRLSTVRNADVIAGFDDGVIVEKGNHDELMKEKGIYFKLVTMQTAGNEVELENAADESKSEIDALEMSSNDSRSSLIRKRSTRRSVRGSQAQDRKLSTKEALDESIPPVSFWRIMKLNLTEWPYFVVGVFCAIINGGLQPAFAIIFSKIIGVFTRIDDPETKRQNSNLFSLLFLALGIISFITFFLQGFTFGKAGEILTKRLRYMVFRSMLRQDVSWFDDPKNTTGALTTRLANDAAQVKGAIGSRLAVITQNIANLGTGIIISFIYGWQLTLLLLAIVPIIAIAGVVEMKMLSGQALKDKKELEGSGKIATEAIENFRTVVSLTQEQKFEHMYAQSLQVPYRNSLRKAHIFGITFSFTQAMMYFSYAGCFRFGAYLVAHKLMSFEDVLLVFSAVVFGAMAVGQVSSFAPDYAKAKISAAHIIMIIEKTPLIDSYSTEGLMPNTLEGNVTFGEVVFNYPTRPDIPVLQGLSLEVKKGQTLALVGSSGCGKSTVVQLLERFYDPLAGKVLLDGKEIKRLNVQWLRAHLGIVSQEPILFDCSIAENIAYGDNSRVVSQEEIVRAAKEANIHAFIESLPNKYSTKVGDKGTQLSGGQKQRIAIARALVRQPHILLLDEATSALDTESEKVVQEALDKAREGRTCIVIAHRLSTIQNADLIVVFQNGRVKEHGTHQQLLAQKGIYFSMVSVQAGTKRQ
Field: numeric (µM). Do not append units.

Some molecules with recorded EC50:
molecule="CC(C)(C)OC(=O)C(Cc1ccccc1)N[C@H]1c2cc(C#N)ccc2OC(C)(C)[C@@H]1O (some centres undefined)" target_system="ATP-dependent translocase ABCB1 (Homo sapiens)" recorded_endpoint=EC50 units_of_measure=µM measured_value=0.776
molecule=Cc1ccc(OC[C@H](O)CN2CCOCC2)c(C(=O)CCc2ccccc2)c1 target_system="ATP-dependent translocase ABCB1 (Homo sapiens)" recorded_endpoint=EC50 units_of_measure=µM measured_value=1.66
molecule=Cc1c([C@H](O)c2ccccc2)c(=O)n(-c2ccccc2)n1C[C@H](O)CN(C(C)C)C(C)C target_system="ATP-dependent translocase ABCB1 (Homo sapiens)" recorded_endpoint=EC50 units_of_measure=µM measured_value=24
molecule=Cc1ccc(OC[C@H](O)CN2CCN(c3cccc(C)c3C)CC2)c(C(=O)CCc2ccccc2)c1 target_system="ATP-dependent translocase ABCB1 (Homo sapiens)" recorded_endpoint=EC50 units_of_measure=µM measured_value=0.0562
molecule=O=C(CCc1ccccc1)c1cc(O)ccc1OC[C@H](O)CN1CCN(Cc2ccccc2)CC1 target_system="ATP-dependent translocase ABCB1 (Homo sapiens)" recorded_endpoint=EC50 units_of_measure=µM measured_value=0.525

Request: Hello, I am looking for reported EC50 with ATP-dependent translocase ABCB1 (Homo sapiens) for `Cc1nn(C)c(OC[C@H](O)CN(C(C)C)C(C)C)c1C(=O)c1ccccc1` . Could you help?
Result: 1.2

Request: // lookup EC50 | system=ATP-dependent translocase ABCB1 (Homo sapiens) | key= `CCN(CC)C[C@@H](O)COc1ccccc1C(=O)c1ccccc1`
Result: 2.34

Request: Give the reported EC50 for `O=C(CCc1ccccc1)c1ccccc1OC[C@H](O)CNC(c1ccccc1)c1ccccc1` (system: ATP-dependent translocase ABCB1 (Homo sapiens)).
Result: 10.5

Request: Param readout = EC50; param system = ATP-dependent translocase ABCB1 (Homo sapiens); param query = `C[C@H](N[C@H]1c2cc(C#N)ccc2OC(C)(C)[C@@H]1O)C(=O)OC(C)(C)C` ; response: value
Result: 14.5
